system_under_test: mouse PD-L1 (cell surface) (mouse, UniProt Q9EP73)
Sequence (Q9EP73 19-238): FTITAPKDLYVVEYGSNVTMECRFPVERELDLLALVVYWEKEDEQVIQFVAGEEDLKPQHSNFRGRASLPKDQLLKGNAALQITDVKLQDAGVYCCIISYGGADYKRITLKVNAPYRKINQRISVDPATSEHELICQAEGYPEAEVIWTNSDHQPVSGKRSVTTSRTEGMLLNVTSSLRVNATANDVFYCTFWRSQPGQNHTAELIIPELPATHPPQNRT
run_description: FACS, 293T m-PD-L1 cells
quantity: EC50 (nM)

1) 3H1-2G3 (antibody, V domains shown) VH: QVQLVESGGGVVQPGGSLRLSCAASGIDFSDTHMHWVRQAPGKQRELVAIITSSGSTDYVDSVKGRFTISRDNSKNTLYLQMNSLRAEDTAVYYCNARRSTILWGQGTQVTVSS; 1.57
2) 3H1-3B9 (antibody, V domains shown) VH: QVQLVESGGGVVQPGGSLRLSCAASGIDFSDTHMHWVRQAPGKQRELVAIITSGGFTDYVDSVKGRFTISRDNSKNTLYLQMNSLRAEDTAVYYCNARTSTIYWGQGTQVTVSS; 0.97
3) 3H1-1G9 (antibody, V domains shown) VH: QVQLVESGGGVVQPGGSLRLSCAASGIDFDDTHMHWVRQAPGKQRELVAIITSGGLTDYVDSVKGRFTISRDNSKNTLYLQMNSLRAEDTAVYYCNARTSTIYWGQGTQVTVSS; 1.01
4) 3H1-6D2 (antibody, V domains shown) VH: QVQLVESGGGVVQPGGSLRLSCAASGIDFNDTHMHWVRQAPGKQRELVAIITSRGSTDYVDSVKGRFTISRDNSKNTLYLQMNSLRAEDTAVYYCNARRSTLYWGQGTQVTVSS; 1.29
5) 3H1-hv7 (antibody, V domains shown) VH: QVQLVESGGGVVQPGGSLRLSCAASGIDFSDTHMHWVRQAPGKQRELVAIITSGGSTDYVDSVKGRFTISRDNSKNTLYLQMNSLRAEDTAVYYCNARRSTIYWGQGTQVTVSS; 0.56

Numbers sourced from patent US20260365734.
